target: human TLR8 (Homo sapiens (Human), UniProt Q9NR97)
Sequence (Q9NR97 27-1041): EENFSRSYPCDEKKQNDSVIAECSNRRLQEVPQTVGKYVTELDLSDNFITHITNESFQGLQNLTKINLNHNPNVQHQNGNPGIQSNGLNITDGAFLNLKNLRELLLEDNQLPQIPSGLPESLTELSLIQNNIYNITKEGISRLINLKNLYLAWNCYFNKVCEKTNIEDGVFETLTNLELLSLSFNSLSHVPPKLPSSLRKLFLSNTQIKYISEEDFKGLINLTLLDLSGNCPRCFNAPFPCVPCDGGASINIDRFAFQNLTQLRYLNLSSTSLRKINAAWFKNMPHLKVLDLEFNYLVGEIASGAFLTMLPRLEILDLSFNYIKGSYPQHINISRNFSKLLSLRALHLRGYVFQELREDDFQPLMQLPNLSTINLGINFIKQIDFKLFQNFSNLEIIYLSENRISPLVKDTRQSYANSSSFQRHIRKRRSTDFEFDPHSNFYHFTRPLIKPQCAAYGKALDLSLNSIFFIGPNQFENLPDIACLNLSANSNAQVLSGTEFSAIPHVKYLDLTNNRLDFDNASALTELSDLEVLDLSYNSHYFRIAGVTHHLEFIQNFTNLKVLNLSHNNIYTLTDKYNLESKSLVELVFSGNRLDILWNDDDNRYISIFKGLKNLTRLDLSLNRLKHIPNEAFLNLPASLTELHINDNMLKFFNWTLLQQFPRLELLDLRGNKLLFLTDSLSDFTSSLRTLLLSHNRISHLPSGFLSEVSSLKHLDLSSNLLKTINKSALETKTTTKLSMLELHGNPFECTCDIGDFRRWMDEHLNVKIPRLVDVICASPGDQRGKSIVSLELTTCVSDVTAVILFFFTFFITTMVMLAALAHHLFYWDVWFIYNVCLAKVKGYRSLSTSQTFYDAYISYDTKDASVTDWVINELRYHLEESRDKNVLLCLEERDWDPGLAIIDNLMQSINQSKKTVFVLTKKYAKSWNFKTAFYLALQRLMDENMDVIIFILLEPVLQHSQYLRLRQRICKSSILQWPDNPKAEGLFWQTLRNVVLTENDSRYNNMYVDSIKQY
assayOverview: TLR8 inhibition reporter assay (HEK-Blue SEAP reporter, R848 stimulation);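 further: SEAP driven by IFN-β minimal promoter with NF-κB and AP-1 sites, 22 h incubation, compounds 0.05 nM–50 µM, inhibition scaled between agonist plus DMSO and reference inhibitor wells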
statedConditions: read-out: TLR8 IC50; HEK-Blue cells overexpressing human TLR8, R848 15.9 μM, SEAP reporter; listed as 700
parameter: pIC50
pIC50 (log units): -log10 of the concentration in mol/L.

[Q] Give recorded pIC50 with human TLR8 (Homo sapiens (Human), UniProt Q9NR97) for the following molecule: Cc1cc(-c2[nH]c3ccc(C(C)C(=O)N4CCCC5(CCCCC5N)C4)cc3c2C(C)C)ccn1 (stereo not shown)
[A] 7.16

====

target: human TLR7 (Homo sapiens (Human))
Sequence (Q9NYK1 27-1049): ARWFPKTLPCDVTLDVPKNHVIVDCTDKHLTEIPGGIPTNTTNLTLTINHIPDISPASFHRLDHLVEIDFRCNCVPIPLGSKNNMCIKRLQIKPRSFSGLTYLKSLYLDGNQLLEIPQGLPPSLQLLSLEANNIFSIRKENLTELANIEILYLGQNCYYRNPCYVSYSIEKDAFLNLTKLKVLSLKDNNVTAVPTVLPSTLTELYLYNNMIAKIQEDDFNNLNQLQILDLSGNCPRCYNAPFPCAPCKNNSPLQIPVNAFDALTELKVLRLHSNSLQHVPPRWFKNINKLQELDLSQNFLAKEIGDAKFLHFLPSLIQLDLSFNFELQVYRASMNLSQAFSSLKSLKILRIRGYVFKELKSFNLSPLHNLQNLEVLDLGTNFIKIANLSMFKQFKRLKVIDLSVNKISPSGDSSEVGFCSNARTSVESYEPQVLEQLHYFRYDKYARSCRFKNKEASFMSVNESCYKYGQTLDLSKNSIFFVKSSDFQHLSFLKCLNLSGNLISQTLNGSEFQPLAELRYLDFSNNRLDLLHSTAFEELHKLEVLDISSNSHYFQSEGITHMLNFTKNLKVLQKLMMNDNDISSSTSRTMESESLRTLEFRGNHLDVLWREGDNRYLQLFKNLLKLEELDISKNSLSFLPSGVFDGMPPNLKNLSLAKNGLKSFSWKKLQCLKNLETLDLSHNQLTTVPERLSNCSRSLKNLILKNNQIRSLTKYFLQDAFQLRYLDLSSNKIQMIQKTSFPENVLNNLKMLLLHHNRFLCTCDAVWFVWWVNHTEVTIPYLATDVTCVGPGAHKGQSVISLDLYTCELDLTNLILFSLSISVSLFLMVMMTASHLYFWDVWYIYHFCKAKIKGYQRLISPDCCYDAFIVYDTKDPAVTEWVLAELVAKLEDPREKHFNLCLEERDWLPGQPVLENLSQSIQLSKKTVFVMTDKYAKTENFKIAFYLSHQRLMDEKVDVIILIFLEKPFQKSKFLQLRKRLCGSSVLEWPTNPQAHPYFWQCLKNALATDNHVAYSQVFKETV
assayOverview: TLR7 inhibition reporter assay (HEK-Blue SEAP reporter, gardiquimod stimulation)
Assay type: cell-based
statedConditions: HEK-Blue cells overexpressing human TLR7, gardiquimod 7.5 μM
Parameter: pIC50. Scope: all listed entries.
pIC50 (log units): -log10 of the concentration in mol/L.

compound=Cc1cc(-c2[nH]c3ccc(C(=O)N(C)Cc4cccc(N)c4)cc3c2C(C)C)cc(C)n1 target="human TLR7 (Homo sapiens (Human))" endpointvalue=7.27
compound=Cc1cc(-c2[nH]c3ccc(C(=O)N4CCC(N(C)C)CC4)cc3c2C(C)C)cc(C)n1 target="human TLR7 (Homo sapiens (Human))" endpointvalue=7.85
compound=Cc1cc(-c2[nH]c3ccc(C(C)(C)C(=O)N[C@H]4CCCC[C@H]4N)cc3c2C(C)C)ccn1 target="human TLR7 (Homo sapiens (Human))" endpointvalue=7.96

Moving on to another compound below.
[Q] Given Cc1cc(-c2[nH]c3ccc(C(C)(C)C(=O)N(C)C4CCCNC4)cc3c2C(C)C)ccn1 (stereo not shown) , state its recorded pIC50.
[A] 7.38
